Molecular target: T1, recombinant human CD8 (rhCD8) (human, UniProt P01732 22-182)
T1 construct: Soluble purified recombinant protein; also called purified recombinant human CD8 protein; soluble CD8
T1 sequence (P01732 22-182 limits assumed): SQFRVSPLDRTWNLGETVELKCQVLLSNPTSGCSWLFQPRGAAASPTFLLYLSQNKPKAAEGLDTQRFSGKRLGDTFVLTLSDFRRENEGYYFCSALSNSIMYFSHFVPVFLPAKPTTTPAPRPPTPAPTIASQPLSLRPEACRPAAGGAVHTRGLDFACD
Assay: SPR (BIAcore), minibody captured via anti-human IgG Fc, hCD8 analyte at 50 nM

Binder	kon / M⁻¹ s⁻¹
IAb_Mb2a_CD8 (other, also called variant 2a) EVQLVESGGGLVQPGGSLRLSCAASGFNIKDTYIHFVRQAPGKGLEWIGRIDPANDNTLYASKFQGKATISADTSKNTAYLQMNSLRAGDTAVYYCGRGYGYYVFDHWGQGTLVTVSSGSTSGGGSGGGSGGGGSSDVQITQSPSSLSASVGDRVTITCRTSRSISQYLAWYQQKPGKVPKLLIYSGSTLQSGVPSRFSGSGSGTDFTLTISSLQPEDVATYYCQQHNENPLTFGGGTKVEIKEPKSCDKTHTCPPCGGGSSGGGSGGQPREPQVYTLPPSRDELTKNQVSLTCLVKGFYPSDIAVEWESNGQPENNYKTTPPVLDSDGSFFLYSKLTVDKSRWQQGNVFSCSVMHEALHNHYTQKSLSLSPGK	480000
